These data points were gathered from paper PMC10500059.

- Assayed target: RhlB;RNase E (694-790) (Escherichia coli;Escherichia coli, UniProt P0A8J8;P21513 1-421;694-790, |)
- Sequence (P0A8J8 whole entry, chain 1 of 2): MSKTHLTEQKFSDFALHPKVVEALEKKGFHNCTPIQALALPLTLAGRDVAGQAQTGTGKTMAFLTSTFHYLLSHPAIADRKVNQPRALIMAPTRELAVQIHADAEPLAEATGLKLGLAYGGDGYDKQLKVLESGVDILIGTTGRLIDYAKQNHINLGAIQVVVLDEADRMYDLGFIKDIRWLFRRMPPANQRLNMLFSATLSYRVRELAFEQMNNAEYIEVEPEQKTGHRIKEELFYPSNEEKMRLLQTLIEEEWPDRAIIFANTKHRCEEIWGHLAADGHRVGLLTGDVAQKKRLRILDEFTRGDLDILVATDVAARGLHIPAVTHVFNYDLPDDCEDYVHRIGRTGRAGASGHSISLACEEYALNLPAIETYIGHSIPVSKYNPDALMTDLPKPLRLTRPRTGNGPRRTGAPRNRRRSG
- Sequence (P21513 694-790, chain 2 of 2): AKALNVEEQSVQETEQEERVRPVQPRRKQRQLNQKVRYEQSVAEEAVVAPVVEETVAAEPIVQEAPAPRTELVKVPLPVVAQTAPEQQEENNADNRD
- Measurement notes: NMR (1H imino titration); no ATP; 4.5 mM Mg2+; NMR: 150 mM KCl, 25 mM Tris/HCl, 5 mM DTT, 4.5 mM MgCl2, pH 8.3, 288 K, 100 µM RNA; EMSA: 150 mM NaCl, 25 mM Tris, 1.5 mM MgCl2, 5 mM DTT, 10% glycerol, pH 8.3, 4 C, 1.5 µM RNA
- Test conditions: protein: recombinant;recombinant; tags: C-terminal TEV site (ENLYFQG) + 6xHis; His-tag removed by TEV, site remnant left;N-terminal 6xHis-TEV; purified analogously (tag cleaved); copies: 1;1; label: none (titration); 3' overhang 8 nt
Quantity kind: Kd (µM)
Value expressed in µM; do not type the unit.

Input line: // returns reported Kd for input 3'-OV duplex (dsRNA) RNA 1: UAGUAACUAAAACAUUAAAUU RNA 2: GUUUUAGUUACUA
Output line: 82.3
